test: Anticoagulant activity in plasma assessed as elongation in mean prothrombin time after 5 min by Quick's method; assay type: functional, cell-free
Measured IC50 by item
Value expressed in µg/mL; do not type the unit.

Illustrative cases are given below, each with its answer.
smiles_code	uom	IC50
CC(=O)Oc1ccccc1-c1nnc(NC(=O)C/C(C)=N/c2ccccn2)s1	µg/mL	2600
C/C(CC(=O)Nc1nnc(-c2ccc(O)cc2)s1)=N\c1ccc([N+](=O)[O-])cn1	µg/mL	2800
C/C(CC(=O)Nc1nnc(-c2ccc([N+](=O)[O-])cc2)s1)=N\c1ccc([N+](=O)[O-])cn1	µg/mL	1200
C/C(CC(=O)Nc1nnc(/C=C/c2ccccc2)s1)=N\c1ccc([N+](=O)[O-])cn1	µg/mL	3000

// next item, IC50 requested
So what's the measured IC50 for this one? C/C(CC(=O)Nc1nnc(/C=C/c2ccccc2)s1)=N\c1ccccn1
2400

----------
assay: Octanol-water partition coefficient, log P of the compound; type: physicochemical
logP less than 4 is Yes; logP greater than or equal to 4 is No.

Below are worked cases with known answers.
smiles_code	group
C/C(CC(=O)Nc1nnc(-c2ccc(O)cc2)s1)=N\c1ccc([N+](=O)[O-])cn1	Yes
CC(=O)Oc1ccccc1-c1nnc(NC(=O)C/C(C)=N/c2ccccn2)s1	Yes
C/C(CC(=O)Nc1nnc(-c2ccc(N)cc2)s1)=N\c1ccc([N+](=O)[O-])cn1	Yes
C/C(CC(=O)Nc1nnc(/C=C/c2ccccc2)s1)=N\c1ccc([N+](=O)[O-])cn1	No
CC(=O)Oc1ccccc1-c1nnc(NC(=O)C/C(C)=N/c2ccc([N+](=O)[O-])cn2)s1	Yes

Strictly below 4: is that where logP of C/C(CC(=O)Nc1nnc(/C=C/c2ccccc2)s1)=N\c1ccccn1 sits?
No

Consider the compound C/C(CC(=O)Nc1nnc(-c2ccc([N+](=O)[O-])cc2)s1)=N\c1ccccn1 . Is its logP strictly less than 4?
Yes

Strictly below 4: is that where logP of C/C(CC(=O)Nc1nnc(-c2ccc(O)cc2)s1)=N\c1ccccn1 sits?
Yes

Identify whether the compound C/C(CC(=O)Nc1nnc(-c2ccc([N+](=O)[O-])cc2)s1)=N\c1ccc([N+](=O)[O-])cn1 records logP below 4.
Yes

Does this compound meet the criterion logP < 4? C/C(CC(=O)Nc1nnc(-c2ccc(N)cc2)s1)=N\c1ccccn1
Yes
